EXPERIMENTAL_ENDPOINT: melting point

Qu. For the compound Nc1nnc(SCC(=O)C23CC4CC(CC(C4)C2)C3)s1 , give its reported melting point.
Ans. 198 to 199 °C

Qu. For the compound Cn1ccnc1[S+]([O-])CC(=O)C12CC3CC(CC(C3)C1)C2 (stereo not drawn) , give its reported melting point.
Ans. 86 to 89 °C

Qu. For the compound O=C(COCc1ccsc1)C12CC3CC(CC(C3)C1)C2 , give its reported melting point.
Ans. 58 to 60 °C

Qu. For the compound Nc1nnc(S(=O)(=O)CC(=O)C23CC4CC(CC(C4)C2)C3)s1 , give its reported melting point.
Ans. 202 to 204 °C

Qu. For the compound O=C(COCc1cccs1)C12CC3CC(CC(C3)C1)C2 , give its reported melting point.
Ans. 57 to 58 °C

Qu. For the compound O=C(CSc1nnc(C2CC2)n1C1CC1)C12CC3CC(CC(C3)C1)C2 , give its reported melting point.
Ans. 117 to 119 °C

---

Target: human 11β-HSD1 (Homo sapiens, UniProt P28845)
Sequence (P28845 whole entry): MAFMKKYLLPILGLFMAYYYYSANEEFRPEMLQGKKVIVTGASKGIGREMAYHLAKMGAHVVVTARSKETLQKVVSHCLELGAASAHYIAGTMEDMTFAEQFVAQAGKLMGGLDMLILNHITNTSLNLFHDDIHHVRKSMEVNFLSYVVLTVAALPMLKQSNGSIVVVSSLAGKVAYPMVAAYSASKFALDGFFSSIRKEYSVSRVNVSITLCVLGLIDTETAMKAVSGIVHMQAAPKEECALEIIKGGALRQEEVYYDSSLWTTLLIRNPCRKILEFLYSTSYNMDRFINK
Test: 11β-HSD1 inhibition cellular assay
Conditions: IC50, human 11β-HSD1, HEK293 cell line transfected with human HSD11B1 gene; mean of three measurements, variance less than 20 %
EXPERIMENTAL_ENDPOINT: pIC50
By convention, pIC50 is the negative base-10 log of a molar concentration.

Check out these entries, answers already filled in.
O=C(CSCc1nccs1)C12CC3CC(CC(C3)C1)C2: 6.61
Cn1cnnc1[S+]([O-])CC(=O)C12CC3CC(CC(C3)C1)C2 (centres unmarked): 7.57
CSc1nnc(SCC(=O)C23CC4CC(CC(C4)C2)C3)s1: 6.51

# context switch: different molecule, same pIC50
Qu. For the molecule O=C(CSCc1ccco1)C12CC3CC(CC(C3)C1)C2 , give its reported pIC50.
Ans. 6.79

---

// reported melting point per item

Check out these entries, answers already filled in.
O=C(COCc1nccs1)C12CC3CC(CC(C3)C1)C2: 89 to 91 °C
Cn1c(SCC(=O)C23CC4CC(CC(C4)C2)C3)nnc1-c1cccs1: 156 to 157 °C
Cc1nnc(SCC(=O)C23CC4CC(CC(C4)C2)C3)s1: 102 to 105 °C
Cn1ccnc1SCC(=O)C12CC3CC(CC(C3)C1)C2: 65 to 69 °C
Cc1csc(COCC(=O)C23CC4CC(CC(C4)C2)C3)n1: 77 to 80 °C
Cc1nnc([S+]([O-])CC(=O)C23CC4CC(CC(C4)C2)C3)s1 (stereo not drawn): 127 to 129 °C
Cn1ccnc1S(=O)(=O)CC(=O)C12CC3CC(CC(C3)C1)C2: 124 to 125 °C
O=C(C[S+]([O-])Cc1cccs1)C12CC3CC(CC(C3)C1)C2 (stereo not drawn): 95 to 98 °C

# context switch: different compound, same melting point
Qu. For the compound Cn1cnnc1S(=O)(=O)CC(=O)C12CC3CC(CC(C3)C1)C2 , give its reported melting point.
Ans. 149 to 150 °C

---

// reported IC50 per item
Molecular target: human 11β-HSD1 (Homo sapiens)
Experiment: 11β-HSD1 inhibition cellular assay
Settings: IC50, human 11β-HSD1, HEK293 cell line transfected with human HSD11B1 gene; mean of three measurements, variance less than 20 %
Form entry: value (nM) — number only.

Check out these entries, answers already filled in.
Cn1ccnc1SCC(=O)C12CC3CC(CC(C3)C1)C2: 93
O=C(CSCc1cccs1)C12CC3CC(CC(C3)C1)C2: 143
O=C(COCc1cccs1)C12CC3CC(CC(C3)C1)C2: 410

Qu. For the compound O=C(COCc1ccsc1)C12CC3CC(CC(C3)C1)C2 , give its reported IC50.
Ans. 280

Qu. For the compound COC(=O)Cc1nnc(SCC(=O)C23CC4CC(CC(C4)C2)C3)n1C , give its reported IC50.
Ans. 97

---

// reported pIC50 per item
Target: human 11β-HSD1 (Homo sapiens, UniProt P28845)
Test: 11β-HSD1 inhibition cellular assay
Details: IC50, human 11β-HSD1, HEK293 cell line transfected with human HSD11B1 gene; mean of three measurements, variance less than 20 %
By convention, pIC50 is the negative base-10 log of a molar concentration.

Check out these entries, answers already filled in.
CN(C)C(=O)c1ccc(CSCC(=O)C23CC4CC(CC(C4)C2)C3)o1: 6.82
CC(=O)Nc1nnc(SCC(=O)C23CC4CC(CC(C4)C2)C3)s1: 6.07
Nc1nnc(SCC(=O)C23CC4CC(CC(C4)C2)C3)s1: 7.15

# context switch: different compound, same pIC50
Qu. For the compound Cn1c(SCC(=O)C23CC4CC(CC(C4)C2)C3)nnc1-c1cccs1 , give its reported pIC50.
Ans. 5.23
